The measurements presented in this section are drawn from PubChem BioAssay.

What composite z-score was measured for each of the following?
- Test system: Wnt5a (protein binding on small-molecule microarray)
- TEST_NAME: small molecules binding Wnt5a protein – biophysical, small-molecule microarray, 635/667 nm fluorescence, primary screen (AID 1142);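 also: fluorescence read at 667 nm with signal to noise per printed feature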
- CONDITION_PARAMETERS: 635 nm fluorescence, higher = more signal
Give bare numbers.

* COc1ccc(C(=O)Nc2ccc3c(c2)[C@@]2(O[C@H](CCO)[C@@H]([Si](C)(C)c4ccc(OC)cc4)[C@@H]2C)C(=O)N3Cc2ccccc2)cc1 | 0.0753
* [N-]=[N+]=Nc1ccccc1C[C@@]1(C(=O)NCc2ccccc2)N=C(c2ccc(OCCCO)cc2)O[C@@H]1c1ccccc1N=[N+]=[N-] | 0.897

As a next step, examine the compound that follows.
Task item: What value of measured composite z-score is listed for O=C(NCc1ccccc1)[C@@H]1c2ccccc2C(=O)N(Cc2cc(C(F)(F)F)cc(C(F)(F)F)c2)[C@H]1c1ccc(CO)cc1 ?
Reply: 0.145
